target.entity: group 2: CDC14A, PTP4A1, BRCA2 and RCL1 homologous peptide/HLA-A*02:01 complexes (mixed)
test.method.notes: SPR (BIAcore T200), crude scFv captured, mixed complexes flowed over
Collected SPR binding level values appear next to each entry.
Numeric answer only, unit RU assumed.

Completed entries (count: 2):
19-AS170036 VL1VH1-56N108A (scFv) scFv: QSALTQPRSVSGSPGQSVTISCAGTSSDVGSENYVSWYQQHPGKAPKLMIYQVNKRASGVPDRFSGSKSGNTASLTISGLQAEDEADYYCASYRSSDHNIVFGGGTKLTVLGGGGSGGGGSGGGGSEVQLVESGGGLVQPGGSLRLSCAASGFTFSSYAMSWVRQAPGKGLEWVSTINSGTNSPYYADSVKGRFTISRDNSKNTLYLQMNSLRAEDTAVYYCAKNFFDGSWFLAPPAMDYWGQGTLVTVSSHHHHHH    7.5
10-AS170036 VL1VH1-57K98F (scFv) scFv: QSALTQPRSVSGSPGQSVTISCAGTSSDVGSENYVSWYQQHPGKAPKLMIYQVNKRASGVPDRFSGSKSGNTASLTISGLQAEDEADYYCASYRSSDFNIVFGGGTKLTVLGGGGSGGGGSGGGGSEVQLVESGGGLVQPGGSLRLSCAASGFTFSSYAMSWVRQAPGKGLEWVSTINSGTGKPYYADSVKGRFTISRDNSKNTLYLQMNSLRAEDTAVYYCAKNFFDGSWFLGPPAMDYWGQGTLVTVSSHHHHHH    4

Attention now turns to another entry.
Consider the binder shown here: 15-AS170036 VL1VH1-57M98Q (scFv) scFv: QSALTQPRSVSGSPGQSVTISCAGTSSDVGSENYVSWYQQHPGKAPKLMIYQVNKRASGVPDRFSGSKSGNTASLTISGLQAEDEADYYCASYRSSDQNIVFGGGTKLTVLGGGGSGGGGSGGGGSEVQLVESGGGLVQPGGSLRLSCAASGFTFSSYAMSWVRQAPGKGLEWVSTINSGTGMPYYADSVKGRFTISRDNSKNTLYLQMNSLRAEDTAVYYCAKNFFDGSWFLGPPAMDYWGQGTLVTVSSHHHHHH What is its recorded SPR binding level? 2.8
